This collection of values is drawn from patent US20120238493A1.

measured_on: GLP-1 receptor (UniProt P43220 24-463, limits assumed)
Sequence (P43220 24-463 limits assumed): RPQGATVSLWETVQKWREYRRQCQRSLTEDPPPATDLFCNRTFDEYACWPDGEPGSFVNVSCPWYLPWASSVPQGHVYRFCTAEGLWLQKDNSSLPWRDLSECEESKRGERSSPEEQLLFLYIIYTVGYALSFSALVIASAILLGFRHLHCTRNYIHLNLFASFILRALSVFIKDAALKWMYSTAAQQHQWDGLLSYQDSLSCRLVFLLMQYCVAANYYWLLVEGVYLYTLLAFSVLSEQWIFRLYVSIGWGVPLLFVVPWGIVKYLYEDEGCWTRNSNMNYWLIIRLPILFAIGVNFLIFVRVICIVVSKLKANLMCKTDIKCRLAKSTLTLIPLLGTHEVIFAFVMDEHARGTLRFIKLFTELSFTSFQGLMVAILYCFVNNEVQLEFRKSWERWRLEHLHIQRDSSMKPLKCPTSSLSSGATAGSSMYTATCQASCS
method_notes: cell-based or functional assay
Where no end group is shown, it is not given here. [ ]: non-standard residue; d: D form. The star is where a group is joined. Lauroyl = CCCCCCCCCCCC(=O)*; 40K‑TE = not defined here; Ac3c = NC1(C(=O)O)CC1; Aib = CC(C)(N)C(=O)O
measurement_name: EC50 (cAMP reporter) (nM)
Just the number please, in nM, no unit attached.

Worked cases, answers included:
H[Aib]QGTFISDYSIYLDKQAA[Ac3c]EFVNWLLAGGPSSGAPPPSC(40K‑TE)-NH2 (not fully specified; reading uncertain) [peptide of SEQ ID NO: 74]    6.42
Y[Aib]QGTFTSDYSIYLDKQAA[Aib]EFVC(40K‑TE PEG)WLLAGGPSSGAPPPSK(Lauroyl)-NH2 [peptide of SEQ ID NO: 173]    0.011
Y[Aib]QGTFTSDYSIYLDKQAA[Aib]EFVC(40K‑TE PEG)WLLAGGPSSGAPPPSK(C14)-NH2 [peptide of SEQ ID NO: 174]    0.01
Y[Aib]QGTFTSDYSIYLDKQAA[Aib]EFVC(40K‑TE PEG)WLLAGGPSSGAPPPSK(C8)-NH2 [peptide of SEQ ID NO: 172]    0.108

Below: the item to evaluate.
**Query** Need EC50 (cAMP reporter) of Y[Aib]QGTFTSDYSIYLDKQAA[Ac3c]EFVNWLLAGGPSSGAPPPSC-NH2 [peptide of SEQ ID NO: 60] , thanks.
**Result** 0.0028
